molecular target: T1, CD3 epsilon homodimer protein (UniProt P07766 23-126); assay: SPR Biacore T200, CD3e homodimer on chip, vs unaltered GLS3000 antibody
T1 construct: also called CD3 (CD3 epsilon)
T1 sequence (P07766 23-126): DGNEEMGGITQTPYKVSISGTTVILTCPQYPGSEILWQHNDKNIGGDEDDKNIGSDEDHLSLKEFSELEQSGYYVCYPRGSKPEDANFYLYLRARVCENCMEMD
Overview of reported ratio of amounts bound (Z=Y/X) across a group of binders:
Quick one: just the number, no unit, thanks!

binder | meas-value
GLS3000 S27eA (antibody, name in Kabat numbering, V domains shown, one-arm IgG as m2) VH: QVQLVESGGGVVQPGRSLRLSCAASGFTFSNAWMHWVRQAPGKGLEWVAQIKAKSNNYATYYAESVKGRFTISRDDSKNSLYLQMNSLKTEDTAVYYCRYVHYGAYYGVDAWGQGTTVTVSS VL: DIVMTQSPLSLPVTPGEPASISCRSSQSLVHANRNTYLHWYQQKPGQAPRLLIYKVSNRFSGVPDRFSGSGSGTDFTLKISRVEAEDVGVYYCGQGTQVPYTFGQGTKLEIK | 1.03

Please look up its ratio of amounts bound (Z=Y/X): GLS3000 F55D (antibody, name in Kabat numbering, V domains shown, one-arm IgG as m2) VH: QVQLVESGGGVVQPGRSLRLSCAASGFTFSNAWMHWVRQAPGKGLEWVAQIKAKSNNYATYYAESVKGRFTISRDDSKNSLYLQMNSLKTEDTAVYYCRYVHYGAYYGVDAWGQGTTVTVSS VL: DIVMTQSPLSLPVTPGEPASISCRSSQSLVHSNRNTYLHWYQQKPGQAPRLLIYKVSNRDSGVPDRFSGSGSGTDFTLKISRVEAEDVGVYYCGQGTQVPYTFGQGTKLEIK
0.65
